- system-tested: human PTHR, G protein-uncoupled conformation (R^0) (Homo sapiens)
- Construct: expressed in transfected cells; host or cells: COS-7, transient (Fugene-6)
- Sequence (Q03431 27-593): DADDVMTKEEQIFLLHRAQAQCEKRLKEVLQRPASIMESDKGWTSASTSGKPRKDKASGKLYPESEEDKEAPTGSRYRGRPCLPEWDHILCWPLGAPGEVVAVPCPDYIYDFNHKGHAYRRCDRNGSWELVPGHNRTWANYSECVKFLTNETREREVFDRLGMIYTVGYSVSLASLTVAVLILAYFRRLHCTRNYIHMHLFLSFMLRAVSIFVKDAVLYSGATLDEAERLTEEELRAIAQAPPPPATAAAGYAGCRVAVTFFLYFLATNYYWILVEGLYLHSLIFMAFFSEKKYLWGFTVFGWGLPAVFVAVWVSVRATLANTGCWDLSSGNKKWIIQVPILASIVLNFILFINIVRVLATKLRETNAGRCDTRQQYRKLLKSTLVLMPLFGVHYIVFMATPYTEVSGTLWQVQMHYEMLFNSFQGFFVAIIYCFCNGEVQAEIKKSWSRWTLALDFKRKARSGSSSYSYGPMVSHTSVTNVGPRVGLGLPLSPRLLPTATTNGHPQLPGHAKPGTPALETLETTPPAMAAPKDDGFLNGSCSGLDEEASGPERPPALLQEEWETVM
- assay-info: Competition binding to R0 conformation of hPTHR (COS-7 membranes, GTPγS, 125I-PTH(1-34) tracer); note: test concentration or dose not given here
- experimental-parameters: parent PTHrP(1-28)NH
Ends that are not written are not given here.

substance: E18,K22,A26-PTHrP(1-28) (AVSEHQLLHDKGKSIQDERRRKFLHALI-NH2) [E18, K22, A26-PTHrP(1-28)NH]
screen human PIR R0 (% parent): 106.1

substance: E18,K22,26-PTHrP(1-28) (AVSEHQLLHDKGKSIQDERRRKFLHKLI-NH2) [E18, K22, 26-PTHrP(1-28)NH]
screen human PIR R0 (% parent): 119.8

substance: AVSEHQLLHDKGKSIQDARRRSFLHKLI [A18, S22, K26-PTHrP(1-28)NH, A18,S22,K26-PTHrP(1-28)]
screen human PIR R0 (% parent): 155

substance: A18,W22,K26-PTHrP(1-28) (AVSEHQLLHDKGKSIQDARRRWFLHKLI-NH2) [A18, W22, K26-PTHrP(1-28)NH]
screen human PIR R0 (% parent): 136

substance: A18,26,W22-PTHrP(1-28) (AVSEHQLLHDKGKSIQDARRRWFLHALI-NH2) [A18, 26, W22-PTHrP(1-28)NH]
screen human PIR R0 (% parent): 126

substance: E18,N22,K26-PTHrP(1-28) (AVSEHQLLHDKGKSIQDERRRNFLHKLI-NH2) [E18, N22, K26-PTHrP(1-28)NH]
screen human PIR R0 (% parent): 84.4

substance: E18,L22,K26-PTHrP(1-28) (AVSEHQLLHDKGKSIQDERRRLFLHKLI-NH2) [E18, L22, K26-PTHrP(1-28)NH]
screen human PIR R0 (% parent): 64.4

substance: E18,S22,A26-PTHrP(1-28) (AVSEHQLLHDKGKSIQDERRRSFLHALI-NH2) [E18, S22, A26-PTHrP(1-28)NH]
screen human PIR R0 (% parent): 31.9

substance: A18,26,S22-PTHrP(1-28) (AVSEHQLLHDKGKSIQDARRRSFLHALI-NH2) [A18, 26, S22-PTHrP(1-28)NH]
screen human PIR R0 (% parent): 133

substance: A18,L22,K26-PTHrP(1-28) (AVSEHQLLHDKGKSIQDARRRLFLHKLI-NH2) [A18, L22, K26-PTHrP(1-28)NH]
screen human PIR R0 (% parent): 160

substance: E18,W22,A26-PTHrP(1-28) (AVSEHQLLHDKGKSIQDERRRWFLHALI-NH2) [E18, W22, A26-PTHrP(1-28)NH]
screen human PIR R0 (% parent): 18.8
